# System: IL-1β cytokine output from THP-1s
# experiment_description: THP-1 AlphaLISA IL-1β cytokine assay (differentiated THP-1 cells, LPS then nigericin)
# Type: cell-based
# cond: Homo sapiens, 30 min pre-incubation, LPS 24 hr, nigericin 1 hour
pIC50: −log10 of the molar value.
readout: pIC50

{"structure_notation": "C=C(Cc1nc(Cc2ccc(CCCC)cc2)no1)C(=O)Nc1cnccn1", "readout": "pIC50", "experimental_result": 5.96}

(1) C=C(Cc1nc(Cc2ccc(CCCC)cc2)no1)C(=O)Nc1ccccn1
(2) C=C(CC(=O)OC1(c2ccc(C(F)(F)F)cn2)CCC1)C(N)=O
(3) C=C(CC(=O)O[C@H](C)c1ccc(C(F)(F)F)cc1)C(N)=O
(4) C=C(Cc1nc(C2(c3ccc(SC(F)(F)F)cc3)CC2)no1)C(=O)Nc1ncc(C)s1
(5) C=C(Cc1nc(C2(c3ccc(SC(F)(F)F)cc3)CC2)no1)C(=O)Nc1cnccn1
Task item: Order by pIC50, ascending. Answer by writing out the labels in the requested order.
Reply: 3, 2, 1, 4, 5

(a) C=C(CC(=O)OC1(c2ccc(C(F)(F)F)cn2)CCC1)C(=O)NC
(b) C=C(CC(=O)OC1(c2ccc(C(F)(F)F)cn2)COC1)C(N)=O
Task item: Problem: Given the entries a and b , determine which has the lower reported pIC50. Your answer should be the label attached to the chosen record.
Reply: a
(a: 4.84, b: 5.07)

(1) C=C(CC(=O)OC1(c2ccc(C(F)(F)F)cc2)CCC1)C(=O)NC
(2) C=C(CC(=O)OC1(c2ccc(C(F)(F)F)cc2)CCC1)C(=O)NCCN1CCOCC1
Task item: Given the two records 1 and 2 , choose the one whose pIC50 value is lower. Identify your selection by its label.
Reply: 1

----------
# Test system: NRF2 (nuclear factor erythroid 2-related factor 2)
# experiment_description: NRF2 activation assay (DiscoverX PathHunter NRF2 translocation kit, U2OS cells)
# Type: cell-based
# cond: Homo sapiens, U2OS; −GSH; normalised to dimethyl fumarate high control
readout: Emax (%)
The answer is to be given in %; state only the numeric part.

Consider the following illustrative entries.
{"compound": "C=C(Cc1nc(C2(c3ccc(SC(F)(F)F)cc3)CC2)no1)C(=O)NCC(=O)O", "target_entity": "NRF2 (nuclear factor erythroid 2-related factor 2)", "readout": "Emax", "experimental_result": 26}
{"compound": "C=C(CC(=O)OC1(c2ccc(C(F)(F)F)cc2)CCC1)C(=O)NC", "target_entity": "NRF2 (nuclear factor erythroid 2-related factor 2)", "readout": "Emax", "experimental_result": 119}
{"compound": "C=C(CC(=O)OC1(c2ccc(C(F)(F)F)c(F)c2)CCC1)C(=O)NC", "target_entity": "NRF2 (nuclear factor erythroid 2-related factor 2)", "readout": "Emax", "experimental_result": 109}
{"compound": "C=C(Cc1ccccc1Cl)C(=O)O [2-(2-chlorobenzyl)acrylic acid, reference compound]", "target_entity": "NRF2 (nuclear factor erythroid 2-related factor 2)", "readout": "Emax", "experimental_result": 2}

Next compound, please.
Task item: Checklist item: Emax tested on NRF2 (nuclear factor erythroid 2-related factor 2), entry `C=C(CC(=O)OC1(c2cc(Cl)cc(Cl)c2)CCC1)C(N)=O` , value?
Reply: 156
